target_or_system: T1, human HER3/ErbB3 extracellular domain (human, UniProt P21860 20-643)
T1 construct: extracellular domain; the range 1-643 of M34309 is printed only for the immunogen; also called Human HER3 ECD; recombinant human HER3
T1 sequence (P21860 20-643): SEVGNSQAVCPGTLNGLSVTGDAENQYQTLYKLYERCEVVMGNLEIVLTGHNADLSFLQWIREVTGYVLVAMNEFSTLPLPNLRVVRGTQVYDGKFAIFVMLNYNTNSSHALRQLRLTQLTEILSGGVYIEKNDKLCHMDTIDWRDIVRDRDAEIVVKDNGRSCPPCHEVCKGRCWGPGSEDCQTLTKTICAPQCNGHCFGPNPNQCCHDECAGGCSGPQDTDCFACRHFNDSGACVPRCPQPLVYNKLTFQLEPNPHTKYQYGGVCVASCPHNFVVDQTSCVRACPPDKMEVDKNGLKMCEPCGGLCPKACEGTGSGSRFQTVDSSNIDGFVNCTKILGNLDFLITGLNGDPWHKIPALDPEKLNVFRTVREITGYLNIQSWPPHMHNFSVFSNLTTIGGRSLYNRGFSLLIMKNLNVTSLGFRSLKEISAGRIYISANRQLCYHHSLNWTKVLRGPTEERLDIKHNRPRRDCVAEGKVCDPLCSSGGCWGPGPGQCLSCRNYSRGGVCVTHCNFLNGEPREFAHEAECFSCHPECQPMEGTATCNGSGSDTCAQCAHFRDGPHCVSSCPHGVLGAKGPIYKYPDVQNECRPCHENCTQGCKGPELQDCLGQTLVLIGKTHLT
procedure_details: SPR, Biacore T-100, HER3 ECD
Below: a set of entries, each annotated with reported Kd.
Value expressed in nM; do not type the unit.

// worked examples, Kd included
HER3-hMab-A10 (antibody, V domains shown) VH: QVQLVESGGGLVQPGGSLRLSCSASGFSFSASYYIYWVRQAPGKGLEYIAYITGDDDKRTYYANWAKGRFTISRDTSKNTVYLQMNSLRAEDTAVYYCTRNLPDELWGPGTLVTVSS VL: DIQMTQTPSTLSASVGDRVTITCQSSESVYSYKNLAWYQQKPGKPPKLLIWQASRLSSGVPSRFSGSGSGTEFTLTISSLQPDDFATYYCQGTYYSSAWDFVFGGGTKVEIK | 1.2
HER3-hMab-A14 (antibody, V domains shown) VH: QVQLVESGGGLVQPGGSLRLSCSASGFSFSSSYWICWVRQAPGKGLELIGYIWSGNGATYYASWAKGRFTISRDTSKNTVYLQMNSLRAEDTAVYFCARNYDASGYGIFHLWGPGTLVTVSS VL: DIQMTQTPSSLSASVGDRVTINCQASQSIVSSYLSWYQQKPGKPPKLLIYSASKLASGVPSRFSGSGSGTDFTLTISSLQPEDFATYYCLYGVDSSNIDNAFGGGTKVEIK | 0.862
Chi1210 (antibody, V domains shown, also called parental rabbit/human Fc chimera of Rab1210) VH: QEQLEESGGGLVQPEGSLTLTCTASGFSFSSSYWICWVRQAPGKGLELIGYIWSGNGATYYASWAKGRFTISKTSSTTVTLQMTSVTATDTATYFCARNYDASGYGIFHLWGPGTLVTVSS VL: AVVMTQTPASVSAAVGGTVTINCQASQSIVSSYLSWYQQKTGQPPKLLIYSASKLASGVPPRFSGSGSGTQFTLTISGVQCDDAATYYCLYGVDSSNIDNAFGGGTEVVVK | 1.2

The record that follows has no Kd shown yet.
## Task Which measured Kd value corresponds to Chi46 (antibody, V domains shown, also called parental rabbit/human Fc chimera of Rab46) VH: EEQLVESGGGLVQPEGSLTLTCTASGFSFSASYYIYWVRQAPGKGLEGIAYITGDDDKRTYYANWAKGRFTISKTSTTVTLQMTSLTAADTATYFCTRNLPDELWGPGTLVTVSS VL: QAVVTQTPSSVSAAVGGTVTISCQSSESVYSYKNLAWYQQKPGQPPRLLIWQASRLSSGVSSRFSGSGSGTQFTLTISGVQCDDAATYYCQGTYYSSAWDFVFGGGTEVMVE ?
## Result 3.32

The measurements presented in this section are drawn from patent US20180066066A1.
